Test: In vitro microsome stability assay
Assay type: in vitro ADME
Settings: rat, liver microsomes
Form field: microsomal CLint (one value per entry).

>  <COMPOUND>
CC(C)(C)n1nc(Cc2cccc(Cl)c2F)c2c(N)ncnc21 [Compound 18]

>  <microsomal CLint>
> 350 µL/min/mg

$$$$
>  <COMPOUND>
CC(C)n1nc(Cc2cc(F)cc(Cl)c2)c2c(N)ncnc21 [Compound 21]

>  <microsomal CLint>
> 350 µL/min/mg

$$$$
>  <COMPOUND>
CC(C)(C)n1nc(Cc2ccc(F)c(Cl)c2)c2c(N)ncnc21 [Compound 20]

>  <microsomal CLint>
> 350 µL/min/mg

$$$$
